biological target: K-Ras G12S (Homo sapiens, UniProt P01116, G12S); assay: HTRF resonance energy transfer assay, K-Ras G12S / SOS1 interaction; conditions: HTRF assay of Example 5; read-out: IC50 against K-Ras G12S
Sequence (P01116 1-188 isoform P01116-2 G12S): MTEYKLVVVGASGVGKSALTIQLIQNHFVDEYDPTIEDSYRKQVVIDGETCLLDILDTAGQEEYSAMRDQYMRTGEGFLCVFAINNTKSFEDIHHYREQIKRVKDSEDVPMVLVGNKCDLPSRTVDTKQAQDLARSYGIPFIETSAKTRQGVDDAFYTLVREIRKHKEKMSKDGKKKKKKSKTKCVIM
metric: IC50

Query CC1CCOc2c(Cl)c(-c3ccc(F)c4sc(N)c(C#N)c34)c(F)c3nc(OC[C@@]45CCCN4C[C@H](F)C5)nc(c23)N1C1CC1 (stereo partly drawn) yields IC50 of < 100 nM

Query COCCN1CCC(N2CCOc3c(Cl)c(-c4ccc(F)c5sc(N)c(C#N)c45)c(F)c4nc(OC[C@@]56CCCN5C[C@H](F)C6)nc2c34)C1 (stereo partly drawn) yields IC50 of < 100 nM

Query N#Cc1c(N)sc2c(F)ccc(-c3c(Cl)c4c5c(nc(OC[C@@]67CCCN6C[C@H](F)C7)nc5c3F)N(C3CC35CN(C=O)C5)CCO4)c12 (stereo partly drawn) yields IC50 of < 100 nM

Query N#Cc1c(N)sc2c(F)ccc(-c3c(Cl)c4c5c(nc(OC[C@@]67CCCN6C[C@H](F)C7)nc5c3F)N(CC(F)F)C(C3CCN3)CO4)c12 (stereo partly drawn) yields IC50 of < 100 nM

Query CO[C@H](C)C(=O)N1CCC(N2CCOc3c(Cl)c(-c4ccc(F)c5sc(N)c(C#N)c45)c(F)c4nc(OC[C@@]56CCCN5C[C@H](F)C6)nc2c34)C1 (stereo partly drawn) yields IC50 of < 100 nM

Query `C[C@H]1C[C@@H](N2CCOc3c(Cl)c(-c4ccc(F)c5sc(N)c(C#N)c45)c(F)c4nc(OC[C@@]56CCCN5C[C@H](F)C6)nc2c34)CN1` yields IC50 of < 100 nM
